Target entity: alpha 2A (h) (Homo sapiens)
Construct: CEREP
Sequence (P08913 whole entry): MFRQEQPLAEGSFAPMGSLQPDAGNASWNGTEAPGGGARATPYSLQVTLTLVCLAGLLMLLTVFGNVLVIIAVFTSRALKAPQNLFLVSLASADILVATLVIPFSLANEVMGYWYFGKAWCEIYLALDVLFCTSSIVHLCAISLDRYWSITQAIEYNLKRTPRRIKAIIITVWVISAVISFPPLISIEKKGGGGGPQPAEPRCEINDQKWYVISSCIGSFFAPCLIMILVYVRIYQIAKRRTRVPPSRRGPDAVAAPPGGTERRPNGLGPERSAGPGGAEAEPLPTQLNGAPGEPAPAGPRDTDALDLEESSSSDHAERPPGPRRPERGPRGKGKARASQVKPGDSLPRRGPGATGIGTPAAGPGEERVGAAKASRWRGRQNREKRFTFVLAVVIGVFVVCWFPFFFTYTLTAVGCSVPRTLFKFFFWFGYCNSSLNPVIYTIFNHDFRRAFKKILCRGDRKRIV
Test protocol: CEREP panel
Assay type: binding
Condition set: 10 µM

- Compound: "CCCn1c(C)c(C(=O)c2cccc3ccccc23)c2ccccc21 [JWH015]"
  Reading unit: "%"
  % inhibition alpha 2A (h): 1
- Compound: "CN1CCCC[C@H]1Cn1cc(C(=O)c2cc([N+](=O)[O-])ccc2I)c2ccccc21 [(S)-AM1241]"
  Reading unit: "%"
  % inhibition alpha 2A (h): 10
- Compound: "CCCCCCC(C)(C)c1cc(OC)c(C2=C[C@H]3CC[C@]2(CO)C3(C)C)c(OC)c1 [HU910]"
  Reading unit: "%"
  % inhibition alpha 2A (h): 7
- Compound: "CCCC(C)(C)c1ccc2c(c1)OC(C)(C)[C@@H]1CC=C(C)C[C@@H]21 [JWH133]"
  Reading unit: "%"
  % inhibition alpha 2A (h): -18
- Compound: "Cc1c(C(=O)NN2CCCCC2)nn(-c2ccc(Cl)cc2Cl)c1-c1ccc(I)cc1 [AM251]"
  Reading unit: "%"
  % inhibition alpha 2A (h): 30
- Compound: "Cc1ccc2c(c1)Cc1c(C(=O)NN3CCCCC3)nn(-c3ccc(Cl)cc3Cl)c1-2 [Gp-1a]"
  Reading unit: "%"
  % inhibition alpha 2A (h): 30
- Compound: "Cc1c(C(=O)c2cccc3ccccc23)c2cccc3c2n1[C@H](CN1CCOCC1)CO3 [WIN55212-2]"
  Reading unit: "%"
  % inhibition alpha 2A (h): 0
- Compound: "COc1ccc(C(=O)c2c(C)n(CCN3CCOCC3)c3cc(I)ccc23)cc1 [AM630]"
  Reading unit: "%"
  % inhibition alpha 2A (h): -5

Values from paper PMC5216056
